# Measurement Protocol: kinase inhibitors against Plasmodium liver-stage infection, cell-based, known kinase inhibitor set, luminescence, hepatoma host viability (AID 624392);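 also: infected cells incubated roughly two days before readout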
# Condition Info: Plasmodium liver stage in hepatoma cells, luciferase luminescence, concentration not given here
Active and inactive are the calls of the source. No rule for the calls is given here.
Labels: active, inactive

{"Compound": "Cn1c(=O)c(Oc2ccc(F)cc2F)cc2cnc(NC(CO)CO)nc21", "Class Name": "inactive"}
{"Compound": "Nc1nonc1-c1nc2cnccc2n1C1CCCCC1", "Class Name": "inactive"}
{"Compound": "O=C(O[C@H]1CN[C@H](C#Cc2cc3ncnc(Nc4ccc(OCc5cccc(F)c5)c(Cl)c4)c3s2)C1)N1CCOCC1", "Class Name": "inactive"}
{"Compound": "CS(=O)(=O)CCCn1c(=O)c(Oc2ccc(F)cc2F)cc2cnc(NC3CCOCC3)nc21", "Class Name": "inactive"}
{"Compound": "NC(=O)c1ccc(-c2nc(-c3ccc4c(c3)OCO4)c(-c3ccccn3)[nH]2)cc1", "Class Name": "inactive"}
{"Compound": "c1cnn2ncc(-c3ccnc(Nc4ccc5c(c4)OCCO5)n3)c2c1", "Class Name": "inactive"}
{"Compound": "COc1cccc(-n2ncc3c(N/N=C/c4ccc(C(=O)NCCN(C)C)cc4)ncnc32)c1", "Class Name": "inactive"}
{"Compound": "Nc1ccc(C#Cc2cncnc2Nc2ccc(OCc3cccc(F)c3)c(Cl)c2)cc1", "Class Name": "inactive"}
{"Compound": "NS(=O)(=O)c1ccc(N=Nc2c(O)[nH]c3ccc(C(=O)NCCc4cnc[nH]4)cc23)cc1", "Class Name": "inactive"}
{"Compound": "O=C(O[C@H]1CN[C@H](C#Cc2cc3ncnc(Nc4ccc5c(ccn5Cc5cc(F)ccc5F)c4)c3s2)C1)N1CCOCC1", "Class Name": "inactive"}
{"Compound": "NS(=O)(=O)c1ccc(-c2ccc3c(NC(=O)C4CC4)n[nH]c3c2)cc1", "Class Name": "inactive"}
{"Compound": "CCc1nccc2c1nc(-c1nonc1N)n2CC", "Class Name": "inactive"}
{"Compound": "Cn1c(=O)c(Oc2ccc(F)cc2F)cc2cnc(NC3CCOC3)nc21 (stereo unspecified)", "Class Name": "inactive"}
{"Compound": "CC(C)c1ccc(Nc2nccc(-c3cnn4ncccc34)n2)cc1", "Class Name": "active"}
{"Compound": "Cn1cc(C2=C(c3ccccc3)C(=O)NC2=O)c2ccccc21", "Class Name": "inactive"}
{"Compound": "CNC(=O)c1ncccc1Nc1nc(Nc2cc3c(cc2OC)CCCN3C(=O)CN(C)C)nc2[nH]ccc12", "Class Name": "inactive"}
{"Compound": "O=c1c(Oc2ccc(F)cc2F)cc2cnc(NC3CCOCC3)nc2n1CCCO", "Class Name": "inactive"}
{"Compound": "FC(F)(F)c1cccc(Nc2nccc(-c3cnn4nc(-c5ccccc5)ccc34)n2)c1", "Class Name": "inactive"}
{"Compound": "O=C1Nc2ccc(F)cc2C1=Cc1ccc[nH]1", "Class Name": "inactive"}
{"Compound": "COc1cc[nH]c1C=C1C(=O)Nc2ccc(F)c(C#CC(O)C(N)C(C)O)c21 (stereo unspecified)", "Class Name": "inactive"}
{"Compound": "CN(C)CCCNc1nccc(-c2c(-c3ccc(F)cc3)nn3cc(C(F)(F)F)ccc23)n1", "Class Name": "inactive"}

---

# Measurement Protocol: ICB984 medulloblastoma cell growth inhibition, synergistic combos for chromothripsis tumors, cisplatin or BGB combos (AID 1671451);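 also: cells exposed for 96 hours before readout; 0% = vehicle DMSO and 100% = killing by high DMSO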
# Condition Info: ICB984 medulloblastoma cells, drug combinations, at 0.5 µM, stronger effect = higher value
The source made the active and inactive calls. No rule for the calls is given here.
Readout Type: inhibition

{"Molecule": "CCN(CC)CCCC(C)Nc1c2ccc(Cl)cc2nc2ccc(OC)cc12 (centres undefined)", "Endpoint Result": "-2.08% (inactive)"}
{"Molecule": "CCn1cc(C(=O)O)c(=O)c2cc(F)c(N3CCNCC3)cc21", "Endpoint Result": "-9.23% (inactive)"}
{"Molecule": "O=C(O)CCCc1ccccc1", "Endpoint Result": "-32.1% (inactive)"}
{"Molecule": "O=C1c2c(O)ccc(O)c2C(=O)c2c(NCCNCCO)ccc(NCCNCCO)c21", "Endpoint Result": "-30% (inactive)"}

---

# Measurement Protocol: activators of macrophage pro-inflammatory response, cell-based, murine, luminescence (AID 652131)
# Condition Info: murine macrophage pro-inflammatory reporter, stronger effect = higher value
Cut-off 0.003 on z-score, inclusive. At or above means True; below means False.

{"Molecule": "CCNC(=O)O[C@H]1CN[C@H](C#Cc2cc3ncnc(Nc4ccc(OCc5cccc(F)c5)c(Cl)c4)c3s2)C1", "Class Name": "False"}
{"Molecule": "Cc1ccc2c(-c3ccnc(Nc4ccccc4)n3)c(-c3ccc(F)cc3)nn2n1", "Class Name": "False"}
{"Molecule": "CNC(=O)c1cncc(/C=C/c2c(Cl)cccc2Cl)c1", "Class Name": "True"}
{"Molecule": "COc1cc2ncn(-c3cc(OCc4ccccc4C(F)(F)F)c(C(N)=O)s3)c2cc1OC", "Class Name": "False"}
{"Molecule": "CN1CCC(n2cnc(-c3ccc(F)cc3)c2-c2ccnc(NCCO)n2)CC1", "Class Name": "True"}
{"Molecule": "NC(=O)c1cccc(Nc2nccc(Nc3cccc(F)c3)n2)c1", "Class Name": "True"}
{"Molecule": "CC1=C(C(=O)Nc2ccc3n[nH]c(C)c3c2)C(c2ccc(C(F)(F)F)cc2)CC(=O)N1 (stereo not given)", "Class Name": "False"}
{"Molecule": "CC(C)COC(=O)c1ccc2[nH]c(O)c(C=Nc3ccc(S(N)(=O)=O)cc3)c2c1", "Class Name": "False"}
{"Molecule": "CN(C)c1cc2c(Nc3ccc4nc(Cc5ccccc5)[nH]c4c3)ncnc2cn1", "Class Name": "True"}

---

# Measurement Protocol: growth inhibition of BT084 medulloblastoma cells, cell-based, ICGC_MB145, cisplatin and BGB IC40 combos (AID 1671461);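 also: cells exposed to drugs for 96 hours; 0% = vehicle DMSO and 100% = high DMSO full killing control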
# Condition Info: drug combinations, cisplatin combination, at 0.5 µM, stronger effect = higher value
inhibition values by entry
Readout Type: inhibition

{"Compound": "O=C1c2c(O)ccc(O)c2C(=O)c2c(NCCNCCO)ccc(NCCNCCO)c21", "Endpoint Result": "42.8%"}
{"Compound": "CC(=O)OCC(CCn1cnc2cnc(N)nc21)COC(C)=O", "Endpoint Result": "-22.3%"}
{"Compound": "CCN(CC)CCCC(C)Nc1c2ccc(Cl)cc2nc2ccc(OC)cc12 (centres undefined)", "Endpoint Result": "-5.45%"}
{"Compound": "O=C(O)CCCc1ccccc1", "Endpoint Result": "2.11%"}

---

# Measurement Protocol: ovarian cancer cell viability with rucaparib, profiling panel, oncology-focused library, rucaparib conditional (AID 1508598)
# Condition Info: patient-derived ovarian cancer cells, CellTiter-Glo viability, 144 h; at 0.00488 µM; OCI-P5x cells; without rucaparib; stronger effect = lower value
viability values by entry

{"Compound": "CC(C)C(=O)Nc1ccc([N+](=O)[O-])c(C(F)(F)F)c1", "viability (%)": 106}
{"Compound": "O=c1[nH]cc(F)c(=O)[nH]1", "viability (%)": 98.7}
{"Compound": "CN(CCOc1ccc(CC2SC(=O)NC2=O)cc1)c1ccccn1 (centres undefined)", "viability (%)": 106}
{"Compound": "CC1=C(/C=C/C(C)=C/C=C/C(C)=C/C(=O)O)C(C)(C)CCC1", "viability (%)": 120}

---

normalised cell number values by entry
# Measurement Protocol: differential killing of epithelial or mesenchymal cells, primary screen, imaging, PC-3E GFP, TEM4-18 mCherry, co-culture (AID 1345086);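 also: cells exposed to compound for 72 h before imaging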
# Condition Info: imaging cell counts, measured here: mesenchymal TEM4-18 mCherry cell survival, at 1 µM

{"Molecule": "CCN(CC)CCCC(C)Nc1ccnc2cc(Cl)ccc12 (stereo unspecified)", "normalised cell number": 1.2}
{"Molecule": "CC(=O)Nc1nnc(S(N)(=O)=O)s1", "normalised cell number": 1.17}
{"Molecule": "Nc1nc2c(ncn2COCCO)c(=O)[nH]1", "normalised cell number": 1.26}
{"Molecule": "CC(C)(C)NCC(O)c1cc(O)cc(O)c1 (stereo unspecified)", "normalised cell number": 1.16}
{"Molecule": "Nc1ncn([C@@H]2O[C@H](CO)[C@@H](O)[C@H]2O)c(=O)n1", "normalised cell number": 0.82}
{"Molecule": "CC1(C)O[C@@H]2[C@@H](CO[C@@]3(COS(N)(=O)=O)OC(C)(C)O[C@@H]23)O1", "normalised cell number": 1.58}
{"Molecule": "CN(C)CCCN1c2ccccc2Sc2ccc(Cl)cc21", "normalised cell number": 1.3}
{"Molecule": "CC1=NS(=O)(=O)c2cc(Cl)ccc2N1", "normalised cell number": 1.14}
{"Molecule": "NS(=O)(=O)c1cc2c(cc1C(F)(F)F)NC(Cc1ccccc1)NS2(=O)=O (stereo unspecified)", "normalised cell number": 1.22}
{"Molecule": "CCCN1C[C@H](CSC)C[C@@H]2c3cccc4[nH]cc(c34)C[C@H]21", "normalised cell number": 1.25}
{"Molecule": "CC[C@H](C)C(=O)O[C@H]1C[C@@H](C)C=C2C=C[C@H](C)[C@H](CC[C@@H]3C[C@@H](O)CC(=O)O3)[C@H]21", "normalised cell number": 1.37}

// provenance: PubChem BioAssay
